Sourced from patent US20190119366A1

# Kd per record follows
Target: T1, recombinant human KAAG1 (Kidney associated antigen 1) (human, UniProt Q9UBP8 1-84)
T1 construct: also called KAAG1 protein
T1 sequence: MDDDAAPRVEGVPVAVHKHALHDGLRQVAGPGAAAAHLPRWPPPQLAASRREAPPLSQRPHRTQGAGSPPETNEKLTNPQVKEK
Experiment: SPR (BioRad ProteOn XPR36): antibody captured on an anti-human IgG Fc surface, KAAG1 injected as analyte, 1:1 Langmuir fit
Give your result in pM as a bare value.

>  <Binder>
humanized 3A4 antibody Lh2Hh2 (antibody, human IgG1, kappa, V domains shown, Human IgG1/kappa) VH: QIQLVQSGAEVKKPGASVKVSCKASGYTFTDDYMSWVRQAPGQGLEWMGDINPYNGDTNYNQKFKGRVTITADKSTSTAYMELSSLRSEDTAVYYCARDPGAMDYWGQGTLVTVSS VL: DVVMTQTPLSLPVTPGEPASISCRSSQSLLHSNGNTYLEWYLQKPGQSPKLLIYTVSNRFSGVPDRFSGSGSGTDFTLKISRVEAEDVGVYYCFQGSHVPLTFGQGTKLEIKR

>  <Measure name>
Kd

>  <Uom>
pM

>  <Test result>
245

$$$$
>  <Binder>
humanized 3A4 antibody Lh1Hh3 (antibody, human IgG1, kappa, V domains shown, Human IgG1/kappa) VH: QIQLVQSGAEVKKPGASVKVSCKASGYTFTDDYMSWVRQAPGQGLEWIGDINPYNGDTNYNQKFKGRATLTVDKSTSTAYMELSSLRSEDTAVYYCARDPGAMDYWGQGTLVTVSS VL: DIVMTQTPLSLPVTPGEPASISCRSSQSLLHSNGNTYLEWYLQKPGQSPQLLIYTVSNRFSGVPDRFSGSGSGTDFTLKISRVEAEDVGVYYCFQGSHVPLTFGQGTKLEIKR

>  <Measure name>
Kd

>  <Uom>
pM

>  <Test result>
149

$$$$
>  <Binder>
humanized 3A4 antibody Lh2Hh4 (antibody, human IgG1, kappa, V domains shown, Human IgG1/kappa; 10 mouse framework residues retained; also called H4L2) VH: QIQLVQSGAEVKKPGASVKVSCKASGYTFTDDYMSWVKQAPGQGLEWIGDINPYNGDTNYNQKFKGKATLTVDKSTSTAYMELSSLRSEDTAVYYCARDPGAMDYWGQGTLVTVSS VL: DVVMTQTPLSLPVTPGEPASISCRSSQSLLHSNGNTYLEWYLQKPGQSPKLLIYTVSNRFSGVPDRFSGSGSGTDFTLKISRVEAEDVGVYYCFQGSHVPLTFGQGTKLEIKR

>  <Measure name>
Kd

>  <Uom>
pM

>  <Test result>
103

$$$$

For humanized 3A4 antibody Lh1Hh2 (antibody, human IgG1, kappa, V domains shown, Human IgG1/kappa) VH: QIQLVQSGAEVKKPGASVKVSCKASGYTFTDDYMSWVRQAPGQGLEWMGDINPYNGDTNYNQKFKGRVTITADKSTSTAYMELSSLRSEDTAVYYCARDPGAMDYWGQGTLVTVSS VL: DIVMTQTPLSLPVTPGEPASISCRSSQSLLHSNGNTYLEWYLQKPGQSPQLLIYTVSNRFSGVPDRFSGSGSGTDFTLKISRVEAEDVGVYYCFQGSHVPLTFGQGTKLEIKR , what is its reported Kd?
211
